B1: Serine/threonine-protein kinase A-Raf, residues 21 to 89; numbered along this chain, P10398 (parent)
chain: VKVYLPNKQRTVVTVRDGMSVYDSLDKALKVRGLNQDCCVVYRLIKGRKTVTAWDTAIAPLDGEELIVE

- Variants of: B1
- protocol-description: abundance fitness (aPCA) (normalised: wild type 0, dead -1); higher = more abundant; growth selection in yeast, the domain comes from the species named
- applied-conditions: Homo sapiens
Returns yes (1) if the recorded abundance fitness is greater than or equal to -0.6, and no (0) otherwise.

[[record]]
variant_code = "I45E"
classification = "yes (1)"

[[record]]
variant_code = "V3S"
classification = "no (0)"

[[record]]
variant_code = "V41Q"
classification = "no (0)"

[[record]]
variant_code = "T52V"
classification = "yes (1)"

[[record]]
variant_code = "K49V"
classification = "no (0)"

[[record]]
variant_code = "V13L"
classification = "yes (1)"

[[record]]
variant_code = "T56L"
classification = "yes (1)"

[[record]]
variant_code = "Q9L"
classification = "yes (1)"

[[record]]
variant_code = "G18W"
classification = "no (0)"

[[record]]
variant_code = "L61R"
classification = "yes (1)"

[[record]]
variant_code = "N7P"
classification = "no (0)"

